Reference source for all entries: ChEMBL document CHEMBL3994561

For each of the compounds below, state its IC50.
system: NALM-6; experiment: Cytotoxicity against human NALM6 cells after 48 hrs by MTT assay; assay type: functional, cell-based; conditions: NALM-6, 48 h
Enter your answer as a number in µM; do not include the unit.

IC50 reported for this compound C=C1C(=O)Oc2ccccc2[C@H]1[C@@H]1COCCC1=O (relative stereo) : 13.6

IC50 reported for this compound `C=C1C(=O)Oc2ccccc2[C@H]1[C@@H]1CCCCC1=O` : 85.6

IC50 reported for this compound `C=C1C(=O)Oc2ccccc2[C@H]1[C@@H]1Cc2ccccc2C1=O` : 705

IC50 reported for this compound C=C1C(=O)Oc2ccc(Cl)cc2[C@H]1[C@@H]1CCc2cc(OC)ccc2C1=O (relative stereo) : 1.59

IC50 reported for this compound C=C1C(=O)Oc2c(OC)cccc2[C@H]1[C@@H]1CCCC1=O (relative stereo) : 784

IC50 reported for this compound C=C1C(=O)Oc2ccc(Cl)cc2[C@H]1[C@@H]1Cc2ccccc2C1=O (relative stereo) : 6.56

IC50 reported for this compound C=C1C(=O)Oc2ccc(Cl)cc2C1CC(C)=O (stereo not drawn) : 427

IC50 reported for this compound C=C1C(=O)Oc2c(OC)cccc2[C@H]1[C@@H]1CCc2cc(OC)ccc2C1=O (relative stereo) : 0.87
